Measured TGI by item
test system: KM12 colon; test: NCI tumour cell line growth inhibition, 48 h

CCOC(=O)C1=CN(Cc2ccccc2)C2ON=C(c3ccc(Cl)cc3)C2C1 (stereo not drawn) :: > 66.5 µM

# input TGI lookup needed for Cn1c(=O)ccc2cc(C(=O)c3ccccc3)ccc21 , thanks.
# output > 100 µM

# input # iterate: Clc1ccc2c(NCCCNCc3ccc4c(c3)OCO4)ccnc2c1
# output 15.1 µM

###

system: RXF 393 renal; assay: NCI tumour cell line growth inhibition, 48 h
Measured TGI by item

As a guide, the following entries are already answered.
CN(C)C=Nc1cccc2c1NSN2 :: > 100 µM
O=C1CCCC1C(O)(C(F)(F)Cl)C(F)(F)Cl (stereo not given) :: > 10 µM

# input TGI lookup needed for CCOC(=O)/C(C#N)=C/c1[nH]c(C)c(C)c1C , thanks.
# output > 100 µM

# input # iterate: Cc1c(OCc2cccc3ccccc23)ccc2c(=O)cc(S)oc12
# output > 100 µM

# input # iterate: COc1cccc(/C=N/[N-]C(N)=O)c1[O-].[Cu+2].c1ccncc1
# output 28.6 µM
